The following sequences are shown together with reported PBM binding z-score values.
Tested on: PPARg:RXRa 270nM:90nM, anti-RXR (NR concentration 270 nM, RXRa partner concentration 90 nM)
experiment-description: PBM binding z-score (relative to random genomic background probes); higher = stronger binding; sequences stand for … in GC…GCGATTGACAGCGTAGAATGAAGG
// return a plain number; no unit text

These recorded examples may help you get a feel for the data.
[
  {
    "sequence-data": "CCTTACGGGTCACGACGTTATAGCACGACGAGCG",
    "PBM binding z-score": 5.93
  },
  {
    "sequence-data": "CCTAGTTGGTCAAGGTCAGACACGCTATAGGTAC",
    "PBM binding z-score": 2.26
  },
  {
    "sequence-data": "ATCGAAAGGTCGACGAAGTGAGTATACACCGTTT",
    "PBM binding z-score": 2.51
  },
  {
    "sequence-data": "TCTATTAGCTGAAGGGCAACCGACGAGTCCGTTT",
    "PBM binding z-score": 1.66
  },
  {
    "sequence-data": "CAGACTAGGTCAGGGCCAGTATAGGAGGAACGTT",
    "PBM binding z-score": 3.65
  },
  {
    "sequence-data": "ACTAGCAGGCCAAGGATCACTCAAGATTAGTCCG",
    "PBM binding z-score": 3.37
  }
]

Ask: Looking for the measured PBM binding z-score of "ACTATCAGGCCAAGTTTGGGTCACTCAAACAAAG" , can you help?
Reply: 0.318

Ask: Looking for the measured PBM binding z-score of "CAAACTAGGTCACCGGAAGGTCAGAGTCCGCATG" , can you help?
Reply: 7.46

Ask: Looking for the measured PBM binding z-score of "ACTTACGGGTCAAAGAGGTTATAGCACGCGTATA" , can you help?
Reply: 5.31

Ask: Looking for the measured PBM binding z-score of "ACTCGGAGGACAAAGGTCAGAGGTACGCCAGTGA" , can you help?
Reply: 6.74

Ask: Looking for the measured PBM binding z-score of "TCAGATAGGTGAAGGTAACTCAGGTACGCAGTCG" , can you help?
Reply: 2.26

Ask: Looking for the measured PBM binding z-score of "TATACAGGGTCAGAGGCCAGAGTACGAATGTCGA" , can you help?
Reply: 5.19

Ask: Looking for the measured PBM binding z-score of "GCTCGGAGGACAAGGTAAGAGCTTTGTCCGTAGA" , can you help?
Reply: -0.267

Ask: Looking for the measured PBM binding z-score of "GCGAGTGGGGCAAAGCAGGTTACCATAAGGTTGG" , can you help?
Reply: 1.12

Ask: Looking for the measured PBM binding z-score of "GGAACGACGGCATTCGAGTTGATAGCATGGCGAT" , can you help?
Reply: -0.612

Ask: Looking for the measured PBM binding z-score of "TCTCGGAGGCCACGAAGGTCAGAGCTTTCCAGAG" , can you help?
Reply: 1.82

Ask: Looking for the measured PBM binding z-score of "ATACGTAGGTTAAGGGTCATTCAGGTTGGTTCGC" , can you help?
Reply: 7.6

Ask: Looking for the measured PBM binding z-score of "ATATGTAGGTTATCGGGTCATTCACTTTGCGCAT" , can you help?
Reply: 6.26

Ask: Looking for the measured PBM binding z-score of "ACAGAAAGGTGATGAAGGTAACTCAGGCTATCAT" , can you help?
Reply: 1.12

Ask: Looking for the measured PBM binding z-score of "ACCTACGGGTCAACGAGGTTATAGCACGCGTATA" , can you help?
Reply: 4.86

Ask: Looking for the measured PBM binding z-score of "TGAATGAGGTTATAGGATCAGGGAACGTTGCAAA" , can you help?
Reply: 2.51

* * *

Tested on: VDR:RXRa (NR concentration 270 nM, RXRa partner concentration 90 nM)
experiment-description: PBM binding z-score (relative to random genomic background probes); higher = stronger binding; sequences stand for … in GC…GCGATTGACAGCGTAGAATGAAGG
Kindly return satisfied if reported PBM binding z-score is no lower than 1; return not satisfied if it is lower.

Consider the following illustrative entries.
[
  {
    "sequence-data": "CGAACTAGGTCAGAACAGGACAGCGAAGGATGAT",
    "label-class": "not satisfied"
  },
  {
    "sequence-data": "CCTAGTTGGTCAGGACGTCACACACCGGATATGA",
    "label-class": "not satisfied"
  },
  {
    "sequence-data": "ACTAGCAGGCCAAGGGTCACACAAGATTAGTCCG",
    "label-class": "satisfied"
  },
  {
    "sequence-data": "ATTATTAGTTGAGACGAGGGCAACCGATAGGTTG",
    "label-class": "satisfied"
  },
  {
    "sequence-data": "GCTTACGGGTCAATGGTTATAGCATGAATAGAAT",
    "label-class": "satisfied"
  }
]

Ask: State whether the measured PBM binding z-score reaches 1, counting equality as reaching it, for "CCGACAGGGGCAGAAAGGTTACCATACCATCCGG"
Reply: satisfied

Ask: State whether the measured PBM binding z-score reaches 1, counting equality as reaching it, for "TATACAGGGGCAAAGGCCAGAGTACGAATGTCGA"
Reply: satisfied

Ask: State whether the measured PBM binding z-score reaches 1, counting equality as reaching it, for "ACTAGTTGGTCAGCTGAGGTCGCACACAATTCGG"
Reply: satisfied

Ask: State whether the measured PBM binding z-score reaches 1, counting equality as reaching it, for "CGTAGCAGGCCAGGGTCACTCAAGCATTTCGCTT"
Reply: satisfied

Ask: State whether the measured PBM binding z-score reaches 1, counting equality as reaching it, for "GCTTGTAGATGAAGGTTAAGAAAGACTAAGCTAA"
Reply: not satisfied

Ask: State whether the measured PBM binding z-score reaches 1, counting equality as reaching it, for "TCTTATAGGTAATACAGGTGAAAGTCGGCATCTA"
Reply: satisfied

Ask: State whether the measured PBM binding z-score reaches 1, counting equality as reaching it, for "TCGAGTATGTTAGTCGGGGCATTCAGCCAACATA"
Reply: not satisfied

Ask: State whether the measured PBM binding z-score reaches 1, counting equality as reaching it, for "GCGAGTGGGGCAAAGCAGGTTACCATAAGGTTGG"
Reply: not satisfied

Ask: State whether the measured PBM binding z-score reaches 1, counting equality as reaching it, for "CGTCCAAGGTCAATGCTAGGTCAGTGGAAGCATT"
Reply: satisfied

Ask: State whether the measured PBM binding z-score reaches 1, counting equality as reaching it, for "TCTGCTAGGTCAGTTGGTCGGCTAACGAGCTGCC"
Reply: not satisfied

Ask: State whether the measured PBM binding z-score reaches 1, counting equality as reaching it, for "CCTAGCAGGCCAATCCGGGTCACTCAAGGCTTGA"
Reply: satisfied

Ask: State whether the measured PBM binding z-score reaches 1, counting equality as reaching it, for "TTACCAAGGTGAGCTGAGGTCGTTCATCCAACTC"
Reply: satisfied

Ask: State whether the measured PBM binding z-score reaches 1, counting equality as reaching it, for "CCGACTGGGGAATAAGGTTACCATAAGCCAGCCC"
Reply: not satisfied

* * *

System: RXRa homodimer (NR concentration 180 nM)
experiment-description: PBM binding z-score (relative to random genomic background probes); higher = stronger binding; sequences stand for … in GC…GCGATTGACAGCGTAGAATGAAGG
reported-property: PBM binding z-score
// return a plain number; no unit text

These recorded examples may help you get a feel for the data.
[
  {
    "sequence-data": "AGAACGAGGGCACGCTGAGTTAATAGCAGAGTAG",
    "PBM binding z-score": 1.44
  },
  {
    "sequence-data": "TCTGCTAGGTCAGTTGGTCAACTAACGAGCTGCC",
    "PBM binding z-score": 1.03
  }
]

Ask: Record lookup: for RXRa homodimer (NR concentration 180 nM), what PBM binding z-score belongs to "CGTCTAAGTTCAACTAAGGTAACGTAAAGCACGC" ?
Reply: 3.54

Ask: Record lookup: for RXRa homodimer (NR concentration 180 nM), what PBM binding z-score belongs to "CCTAACGGGTCACGAGGTTATAGCACGACGAGCG" ?
Reply: 6.09

Ask: Record lookup: for RXRa homodimer (NR concentration 180 nM), what PBM binding z-score belongs to "TGAATGAGGTTAAAGATCAGGGACCGTGGCGTCG" ?
Reply: 3.61

Ask: Record lookup: for RXRa homodimer (NR concentration 180 nM), what PBM binding z-score belongs to "TCATATAGGTAACGGTGAAAGTCGAACGATATGA" ?
Reply: 0.79

Ask: Record lookup: for RXRa homodimer (NR concentration 180 nM), what PBM binding z-score belongs to "ATCTCCAGGTAAAGTTCAGTGAAAGATCGATAGA" ?
Reply: 1.52

Ask: Record lookup: for RXRa homodimer (NR concentration 180 nM), what PBM binding z-score belongs to "CGTCCAAGGTCAGAGAGGTGAGTGAATGCCGAGT" ?
Reply: 3.79

Ask: Record lookup: for RXRa homodimer (NR concentration 180 nM), what PBM binding z-score belongs to "ACTATTAGCTGACTTAGGGCAACCGATACGACGC" ?
Reply: 0.197

Ask: Record lookup: for RXRa homodimer (NR concentration 180 nM), what PBM binding z-score belongs to "CCGAGTAGGTTATGGGGCATTCTGGCAACGGTGA" ?
Reply: 0.554

Ask: Record lookup: for RXRa homodimer (NR concentration 180 nM), what PBM binding z-score belongs to "AGTTAAAGTTCAGGACGAGGTAACGTAAAGCACG" ?
Reply: 2.72

Ask: Record lookup: for RXRa homodimer (NR concentration 180 nM), what PBM binding z-score belongs to "GATAGAGGGTCAAGGCCAGAGTACGCGTATTGAT" ?
Reply: 4.38

Ask: Record lookup: for RXRa homodimer (NR concentration 180 nM), what PBM binding z-score belongs to "CGTCAAAGTTCAACTAAGGTGACGTAAAGCACGC" ?
Reply: 5.33

Ask: Record lookup: for RXRa homodimer (NR concentration 180 nM), what PBM binding z-score belongs to "TCATATAGGTGATACAGGTGAAAGTCGGCATCTA" ?
Reply: 1.34

Ask: Record lookup: for RXRa homodimer (NR concentration 180 nM), what PBM binding z-score belongs to "CCGACTGGGGCAAGGTTTCCATAACGCACAGCCA" ?
Reply: -0.0639

Ask: Record lookup: for RXRa homodimer (NR concentration 180 nM), what PBM binding z-score belongs to "CCTTCTAGGTCATGGTCAGCTAATCTACAGTATG" ?
Reply: 3.37

Ask: Record lookup: for RXRa homodimer (NR concentration 180 nM), what PBM binding z-score belongs to "TCTTGTAGAACAACAGGAGGTTAAGAAAGATCGA" ?
Reply: 0.875

Ask: Record lookup: for RXRa homodimer (NR concentration 180 nM), what PBM binding z-score belongs to "CAAACTAGGTCACCGGAAGCTCAAAGTCCGCATG" ?
Reply: 3.81
